Molecular target: fibronectin receptor (Homo sapiens, UniProt P05556+P08648)
Sequence (P08648 42-894 limits assumed): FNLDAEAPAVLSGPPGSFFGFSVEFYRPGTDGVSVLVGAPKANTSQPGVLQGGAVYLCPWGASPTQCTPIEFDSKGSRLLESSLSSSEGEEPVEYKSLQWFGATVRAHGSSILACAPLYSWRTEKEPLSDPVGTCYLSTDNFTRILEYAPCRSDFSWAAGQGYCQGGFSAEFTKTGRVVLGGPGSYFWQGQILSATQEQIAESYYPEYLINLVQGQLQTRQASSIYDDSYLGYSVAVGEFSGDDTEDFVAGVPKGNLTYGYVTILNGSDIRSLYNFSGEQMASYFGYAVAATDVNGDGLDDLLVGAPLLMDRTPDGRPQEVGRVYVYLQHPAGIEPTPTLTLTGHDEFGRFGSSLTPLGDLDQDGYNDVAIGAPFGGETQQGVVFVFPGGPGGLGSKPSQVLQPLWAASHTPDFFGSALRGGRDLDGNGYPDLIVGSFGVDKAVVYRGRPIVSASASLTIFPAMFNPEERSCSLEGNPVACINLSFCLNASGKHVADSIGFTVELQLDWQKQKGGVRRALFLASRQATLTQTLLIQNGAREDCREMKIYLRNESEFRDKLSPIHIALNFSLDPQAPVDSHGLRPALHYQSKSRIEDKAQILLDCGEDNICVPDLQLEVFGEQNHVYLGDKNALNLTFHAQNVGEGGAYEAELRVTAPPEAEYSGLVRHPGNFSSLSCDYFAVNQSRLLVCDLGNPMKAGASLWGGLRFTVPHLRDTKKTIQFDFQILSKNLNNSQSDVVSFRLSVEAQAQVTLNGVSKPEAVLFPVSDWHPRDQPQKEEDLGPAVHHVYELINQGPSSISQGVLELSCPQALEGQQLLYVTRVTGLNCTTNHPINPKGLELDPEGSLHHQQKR
Sequence (P08648 895-1049 partner limits assumed): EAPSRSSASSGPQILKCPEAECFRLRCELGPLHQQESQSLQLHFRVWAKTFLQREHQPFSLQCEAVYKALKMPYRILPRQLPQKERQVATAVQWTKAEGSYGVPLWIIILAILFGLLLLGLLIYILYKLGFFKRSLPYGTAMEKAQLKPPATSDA
Sequence (P05556 21-798): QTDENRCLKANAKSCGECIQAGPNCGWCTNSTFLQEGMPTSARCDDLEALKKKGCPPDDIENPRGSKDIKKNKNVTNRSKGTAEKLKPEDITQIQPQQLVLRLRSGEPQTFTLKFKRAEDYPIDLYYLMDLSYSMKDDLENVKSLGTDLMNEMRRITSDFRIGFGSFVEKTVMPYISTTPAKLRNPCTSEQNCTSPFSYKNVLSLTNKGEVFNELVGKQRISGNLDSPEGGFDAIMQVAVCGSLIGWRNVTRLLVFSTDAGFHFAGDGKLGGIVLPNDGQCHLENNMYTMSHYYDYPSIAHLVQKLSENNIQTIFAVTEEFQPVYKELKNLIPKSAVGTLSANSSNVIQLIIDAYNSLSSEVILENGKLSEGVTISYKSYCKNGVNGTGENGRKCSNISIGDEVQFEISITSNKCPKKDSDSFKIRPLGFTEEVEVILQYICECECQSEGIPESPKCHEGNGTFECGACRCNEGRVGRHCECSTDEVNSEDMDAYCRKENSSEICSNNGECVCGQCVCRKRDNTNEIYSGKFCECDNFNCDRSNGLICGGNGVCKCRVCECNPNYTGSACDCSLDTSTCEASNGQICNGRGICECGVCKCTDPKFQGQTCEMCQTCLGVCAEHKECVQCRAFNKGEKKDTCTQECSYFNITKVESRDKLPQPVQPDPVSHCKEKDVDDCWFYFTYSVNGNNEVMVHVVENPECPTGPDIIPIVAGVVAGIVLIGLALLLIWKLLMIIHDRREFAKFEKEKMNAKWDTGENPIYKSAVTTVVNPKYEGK
Test: Attachment of fibronectin receptor liposomes to fibronectin-coated wells in the presence of cations
Assay type: binding
Parameters: from tissue; host or cells: human placenta
Settings: cations 1 mM; percentage of control attachment in 1 mM CaCl₂ and 1 mM MgCl₂; mean and standard error, three experiments

[
  {
    "compound": "[Cl][Mn][Cl]",
    "% Attachment": "210 ± 29%"
  },
  {
    "compound": "[Ca+2].[Cl-].[Cl-] [Ca²⁺, CaCl₂, reference compound]",
    "% Attachment": "75 ± 10%"
  },
  {
    "compound": "[Co+2]",
    "% Attachment": "150 ± 13%"
  },
  {
    "compound": "[Cl-].[Cl-].[Mg+2] [Mg²⁺, MgCl₂, reference compound]",
    "% Attachment": "110 ± 5%"
  },
  {
    "compound": "[Cd+2]",
    "% Attachment": "130 ± 30%"
  },
  {
    "compound": "[Ni+2]",
    "% Attachment": "100 ± 12%"
  }
]
